# Tested on: mexB (PA) strain
# test description: Combinational effect with antibacterial agent against Pseudomonas aeruginosa (Test Examples 2 and 4): mexB (PA) strain with LVFX, TC or AZT at 1/4 MIC, EC99
# Type: cell-based
# setup conditions: mexB (PA) strain; combined with AZT at 1/4 MIC; Test Example 4
parameter: EC99, combinational effect with AZT, mexB (PA)

N[C@@H](C(=O)N1CCN(Cc2cccc3c2CCN3)CC1)C1CCN(CCc2cc(Cl)ccc2-c2ccccc2)CC1 [Example 513] | B (25 μM<EC99≤100 μM)
N[C@@H](C(=O)N1CCN(Cc2cccc3cccnc23)CC1)C1CCN(CCc2cc(Cl)ccc2-c2ccccc2)CC1 [Example 533] | B (25 μM<EC99≤100 μM)
CCOc1cccc(F)c1CN1CCN(C(=O)[C@H](N)C2CCN(CCc3cc(Cl)ccc3-c3cncc(O)c3)CC2)CC1 [Example 572] | B (25 μM<EC99≤100 μM)
CCOc1cccc(F)c1CN1CCN(C(=O)[C@H](N)C2CCN(CCc3cc(Cl)ccc3-c3cnc(NC)c(C)c3)CC2)CC1 [Example 563] | C (100 μM<EC99)
CCOc1cccc(F)c1CN1CCN(C(=O)[C@H](N)C2CCN(CCc3cscc3-c3ccccc3)CC2)CC1 [Example 540] | C (100 μM<EC99)
CCOc1cccc(F)c1CN1CCN(C(=O)[C@H](N)C2CCN(CCc3cc(Cl)ccc3-c3cncs3)CC2)CC1 [Example 504] | B (25 μM<EC99≤100 μM)

### Prompt Reported EC99, combinational effect with AZT, mexB (PA) for mexB (PA) strain, given CCOc1cccc(F)c1CN1CCN(C(=O)[C@H](N)C2CCN(CCc3cc(Cl)ccc3-c3cc(O)ccc3F)CC2)CC1 [Example 585] ?
### Response S (EC99≤12.5 μM)

### Prompt Reported EC99, combinational effect with AZT, mexB (PA) for mexB (PA) strain, given CCOc1cccc(F)c1CN1CCN(C(=O)[C@H](N)C2CCN(CCc3cc(Cl)ccc3-c3cccc(NC)c3)CC2)CC1 [Example 561] ?
### Response S (EC99≤12.5 μM)

### Prompt Reported EC99, combinational effect with AZT, mexB (PA) for mexB (PA) strain, given CCSc1cc(F)ccc1CN1CCN(C(=O)[C@H](N)C2CCN(CCc3cc(Cl)ccc3-c3cc(O)cc(F)c3)CC2)CC1 [Example 609] ?
### Response S (EC99≤12.5 μM)

### Prompt Reported EC99, combinational effect with AZT, mexB (PA) for mexB (PA) strain, given CCSc1cc(F)ccc1CN1CCN(C(=O)[C@H](N)C2CCN(CCc3cc(Cl)ccc3-c3ccccc3F)CC2)CC1 [Example 598] ?
### Response S (EC99≤12.5 μM)

---

# Tested on: S-3769 strain
# test description: Combinational effect with antibacterial agent against Pseudomonas aeruginosa (Test Examples 2 and 4): S-3769 strain with AMK or GM at 1/4 MIC, EC99
# Assay type: cell-based
# setup conditions: Table 52, Test Example 2; combined with GM at 1/4 MIC; 16 to 20 hours culture, OD595
parameter: EC99, S-3769 strain, GM

CCOc1cccc(F)c1CN1CCN(C(=O)[C@H](N)C2CCN(CCc3ccccc3F)CC2)CC1 | B (25 μM<EC99≤100 μM)
N[C@@H](C(=O)N1CCN(Cc2cccc3ccoc23)CC1)C1CCN(CCc2cc(Cl)ccc2-c2ccccc2)CC1 | B (25 μM<EC99≤100 μM)

# credit: patent US20250326744A1
